These data points were gathered from the supplement of paper PMC9112550.

- Test system: Escherichia coli TOP10
- Experiment Description: shrunken log2 fold change of peptide-encoding DNA abundance (4.5 h post-induction vs induction); higher = less antimicrobial activity (less host growth inhibition)
- Assay Setup: time post-induction: 4.5 h; library: site-saturation at positions 5, 18, 19, 20
Quantity Kind: shrunken log2 fold change

Sequence Text: RRIRNRPPRLPRPRPRPEYGPRP
Experimental Target: Escherichia coli TOP10
Quantity Kind: shrunken log2 fold change
Result: -0.284

Sequence Text: RRIRYRPPRLPRPRPRPVVEPRP
Experimental Target: Escherichia coli TOP10
Quantity Kind: shrunken log2 fold change
Result: -0.34

Sequence Text: RRIRTRPPRLPRPRPRPSDTPRP
Experimental Target: Escherichia coli TOP10
Quantity Kind: shrunken log2 fold change
Result: -0.212

Sequence Text: RRIRGRPPRLPRPRPRPVIIPRP
Experimental Target: Escherichia coli TOP10
Quantity Kind: shrunken log2 fold change
Result: 2.29

Sequence Text: RRIRKRPPRLPRPRPRPNSKPRP
Experimental Target: Escherichia coli TOP10
Quantity Kind: shrunken log2 fold change
Result: 0.0385

Each sequence below has a reported value. Please supply its shrunken log2 fold change.
1. RRIRARPPRLPRPRPRPVFWPRP
2. RRIRARPPRLPRPRPRPWMFPRP
3. RRIRQRPPRLPRPRPRPQDLPRP

**A:**
1: 0.699; 2: -0.0244; 3: -0.243

----------
- Tested on: Escherichia coli TOP10
- Experiment Description: shrunken log2 fold change of peptide-encoding DNA abundance (4.5 h post-induction vs induction); higher = less antimicrobial activity (less host growth inhibition)
- Assay Setup: time post-induction: 4.5 h; library: site-saturation at positions 5, 18, 19, 20
# cutoff -0.4 applies to shrunken log2 fold change; >= gives yes, < gives no

Sequence Text: RRIRFRPPRLPRPRPRPNKVPRP
Experimental Target: Escherichia coli TOP10
Label Value: no

Sequence Text: RRIRWRPPRLPRPRPRPHRNPRP
Experimental Target: Escherichia coli TOP10
Label Value: yes

Sequence Text: RRIRQRPPRLPRPRPRPMSEPRP
Experimental Target: Escherichia coli TOP10
Label Value: yes

Sequence Text: RRIRIRPPRLPRPRPRPNKTPRP
Experimental Target: Escherichia coli TOP10
Label Value: yes

Sequence Text: RRIRGRPPRLPRPRPRPVRNPRP
Experimental Target: Escherichia coli TOP10
Label Value: yes

**Q:** Test whether the sequence RRIRGRPPRLPRPRPRPFCPPRP records shrunken log2 fold change of -0.4 or higher.
**A:** yes

**Q:** Test whether the sequence RRIRYRPPRLPRPRPRPPILPRP records shrunken log2 fold change of -0.4 or higher.
**A:** no

**Q:** Test whether the sequence RRIRFRPPRLPRPRPRPYKSPRP records shrunken log2 fold change of -0.4 or higher.
**A:** yes

----------
- Test system: Escherichia coli TOP10;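 further: peptides expressed intracellularly from a pBAD plasmid library in pooled LB shake-flask culture, induced with 0.3% L-arabinose, DNA abundance read by NGS, three biological replicates, DESeq2 with apeglm shrinkage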
- Experiment Description: shrunken log2 fold change of peptide-encoding DNA abundance (4.5 h post-induction vs induction); higher = less antimicrobial activity (less host growth inhibition)
- Assay Setup: time post-induction: 4.5 h; library: site-saturation at positions 5, 18, 19, 20
Quantity Kind: shrunken log2 fold change

Worked set:
Sequence Text: RRIRFRPPRLPRPRPRPKAWPRP
shrunken log2 fold change: 0.0254
--
Sequence Text: RRIRLRPPRLPRPRPRPRVPPRP
shrunken log2 fold change: 0.264
--
Sequence Text: RRIRMRPPRLPRPRPRPCHDPRP
shrunken log2 fold change: -0.347
--
Sequence Text: RRIRLRPPRLPRPRPRPQAIPRP
shrunken log2 fold change: -0.152
--
Sequence Text: RRIRNRPPRLPRPRPRPVHSPRP
shrunken log2 fold change: -0.245
--
Sequence Text: RRIRLRPPRLPRPRPRPADHPRP
shrunken log2 fold change: -0.53
--
Sequence Text: RRIRFRPPRLPRPRPRPYNEPRP
shrunken log2 fold change: -0.812

**Q:** Notebook: pull reported shrunken log2 fold change for Escherichia coli TOP10, entry RRIRIRPPRLPRPRPRPTTYPRP
**A:** -0.868
